These measurements were taken from patent US7645885B2.

target-or-system: recombinant rat AR LBD (Rattus norvegicus, UniProt P15207)
Construct: recombinant rat AR LBD
Sequence (P15207 651-882 limits assumed): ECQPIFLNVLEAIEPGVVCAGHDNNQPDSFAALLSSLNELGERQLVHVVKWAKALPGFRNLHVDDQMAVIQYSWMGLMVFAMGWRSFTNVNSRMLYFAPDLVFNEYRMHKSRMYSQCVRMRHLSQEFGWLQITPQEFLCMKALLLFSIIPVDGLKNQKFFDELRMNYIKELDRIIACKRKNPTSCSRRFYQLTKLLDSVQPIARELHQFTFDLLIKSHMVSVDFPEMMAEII
test-method-notes: competition fluorescence polarization binding assay
experimental-conditions: relative binding affinity; ratio of Kd of test compound to Kd of DHT multiplied by 100
Documented RBA (DHT = 100) across a set of molecules

molecule: CC12Cc3cn[nH]c3C=C1CCCC2CCc1ccc(CO)cc1 (centres unmarked) [Compound 18]
RBA (DHT = 100): <0.1

Here CC12Cc3cn[nH]c3C=C1CCCC2CCCO (centres unmarked) [Compound 12] was tested on recombinant rat AR LBD (Rattus norvegicus, UniProt P15207), and its RBA (DHT = 100) came to 1
